# measured-target: EP1 receptors (Homo sapiens, UniProt P34995)
# Sequence (P34995 whole entry): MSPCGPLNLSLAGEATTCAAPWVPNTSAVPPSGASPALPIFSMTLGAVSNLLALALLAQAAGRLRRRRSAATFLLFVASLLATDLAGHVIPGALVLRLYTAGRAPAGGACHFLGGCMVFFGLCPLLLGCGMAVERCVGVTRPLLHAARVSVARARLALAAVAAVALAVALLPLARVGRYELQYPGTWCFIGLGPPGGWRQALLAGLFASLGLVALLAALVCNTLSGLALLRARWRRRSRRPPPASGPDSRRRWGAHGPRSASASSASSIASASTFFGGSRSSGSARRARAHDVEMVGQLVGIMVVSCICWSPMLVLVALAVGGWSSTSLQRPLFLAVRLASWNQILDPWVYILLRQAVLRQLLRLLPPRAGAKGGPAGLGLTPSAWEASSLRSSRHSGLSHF
# run-description: Binding assay for the human prostanoid EP1 receptor (competition with [3H]-PGE2)
# Design: expressed in transfected cells; host or cells: CHO-K1 cells, membrane fraction
# particulars: [3H]-PGE2 competition; averages of a number of experiments; read-out: pIC50 value, binding assay for the human prostanoid EP1 receptor (converted)
# Method: Competition assay using [^3H]-PGE2. Compound potencies are determined using a radioligand binding assay. In this assay compound potencies are determined from their ability to compete with tritiated prostaglandin E2 ([^3H]-PGE2) for binding to the human EP1 receptor. This assay utilises Chinese hamster ovary-K1 (CHO-K1) cells into which a stable vector containing the EP1 cDNA has previously been transfected. […]
Each entry below lists one item and its recorded IC50 value.

CC(C)COc1ccc(Cl)cc1Cc1nc(-c2nc3ccc(N4CCCC4)nc3[nH]2)cs1; ≤ 1000 nM

In: Need IC50 of `NC(=O)c1nc(Cc2cc(Cl)ccc2OCc2ccc(F)cc2F)cs1` , thanks.
Out: ≤ 1000 nM

In: Need IC50 of `CC(C)COc1ccc(Cl)cc1Cc1nc(-c2nc3cnccc3[nH]2)cs1` , thanks.
Out: ≤ 31.6 nM

----------
# measured-target: UniProt P34995
# run-description: human EP1 calcium mobilisation assay (CHO-K1 cells, FLIPR, PGE2)
# Format: cell-based
# Set-up: expressed in transfected cells; host or cells: CHO-K1 cells, pCIN vector
# particulars: free bases or sodium salts; averages of a number of experiments; read-out: functional pKi value, human EP1 calcium mobilisation assay (converted)
value-type: Ki

Completed entries (count: 4):
CC(C)COc1ccc(Cl)cc1Cc1nc(-c2nc3ccc(Cl)nc3[nH]2)cs1; < 1 µM
O=C(Nc1ccccn1)c1csc(Cc2cc(Cl)ccc2OCc2ccccc2)n1; > 1 µM
Clc1ccc(OCc2ccccc2)c(Cc2nc(-c3nc4ncc(Br)cc4[nH]3)cs2)c1; < 1 µM
CC(C(=O)O)c1csc(-c2cc(Cl)ccc2OCc2ccccc2)n1 (centres unmarked); < 1 µM

In: Need Ki of `CNCc1ccc2nc(-c3csc(Cc4cc(Cl)ccc4OCC(C)C)n3)[nH]c2c1` , thanks.
Out: < 1 µM

----------
# measured-target: EP1 receptors (Homo sapiens)
# run-description: Binding assay for the human prostanoid EP1 receptor (competition with [3H]-PGE2)
# Parameters: expressed in transfected cells; host or cells: CHO-K1 cells, membrane fraction
# particulars: [3H]-PGE2 competition; averages of a number of experiments; read-out: pIC50 value, binding assay for the human prostanoid EP1 receptor (converted)
Each entry below lists one item and its recorded IC50 value.

Completed entries (count: 5):
CC(C)COc1ccc(Cl)cc1C(F)(F)c1nc(C(=O)O)cs1 [Example 82]; ≤ 1000 nM
CS(=O)(=O)NC(=O)c1csc(Cc2cc(Cl)ccc2OCc2ccc(F)cc2)n1 [Example 107]; ≤ 31.6 nM
CC(C)COc1ccc(Cl)cc1Cc1nc(-c2nc3ccc(CCN(C)C)cc3[nH]2)cs1 [Example 116]; ≤ 31.6 nM
O=C(O)c1nc(Cc2cc(Cl)ccc2OCc2ccccc2)cs1 [Example 76]; ≤ 31.6 nM
O=C(O)c1nc(Cc2cc(Cl)ccc2OCc2ccccc2F)cs1 [Example 84]; ≤ 31.6 nM

In: Need IC50 of O=C(O)Cc1coc(-c2cc(Cl)ccc2OCc2ccc(F)cc2F)n1 [Example 79] , thanks.
Out: ≤ 1000 nM

In: Need IC50 of CC(C)(C(=O)O)c1csc(-c2cc(Cl)ccc2OCc2ccccc2)n1 [Example 48] , thanks.
Out: ≤ 1000 nM

----------
# measured-target: EP1 receptors (Homo sapiens)
# run-description: Binding assay for the human prostanoid EP1 receptor (competition with [3H]-PGE2)
# Parameters: expressed in transfected cells; host or cells: CHO-K1 cells, membrane fraction
# particulars: [3H]-PGE2 competition; averages of a number of experiments; read-out: pIC50 value, binding assay for the human prostanoid EP1 receptor (converted)
Counter-ions that a name gives are not always drawn.
Each entry below lists one item and its recorded IC50 value.

Completed entries (count: 4):
O=C(O)c1csc(Cc2cc(Cl)ccc2OCc2ccc(Br)cc2F)n1; ≤ 31.6 nM
CC(C)CCOc1ccc(C(F)(F)F)cc1Cc1nc(C(=O)O)cs1; ≤ 31.6 nM
CNCc1ccc2nc(-c3csc(Cc4cc(Cl)ccc4OCC(C)C)n3)[nH]c2c1; ≤ 31.6 nM
O=C(O)c1csc(Cc2cc(C(F)(F)F)ccc2OCC2CCCC2)n1; ≤ 31.6 nM

In: Need IC50 of `NC(=O)c1nc(Cc2cc(Cl)ccc2OCc2ccccc2Cl)cs1` , thanks.
Out: ≤ 1000 nM

In: Need IC50 of `Cc1noc(C)c1S(=O)(=O)NC(=O)c1csc(Cc2cc(Cl)ccc2OCc2ccccc2)n1` , thanks.
Out: ≤ 31.6 nM

In: Need IC50 of `O=C(O)c1nc(Cc2cc(Cl)ccc2OCc2ccc(F)cc2Cl)cs1` , thanks.
Out: ≤ 31.6 nM

In: Need IC50 of `O=C(O)c1nc(Cc2cc(Cl)ccc2OCc2ccc(Cl)cc2)cs1` , thanks.
Out: ≤ 31.6 nM

In: Need IC50 of `Clc1ccc(OCc2ccccc2)c(Cc2nc(-c3nc4cc5cn[nH]c5cc4[nH]3)cs2)c1` , thanks.
Out: ≤ 31.6 nM

In: Need IC50 of `O=C(O)c1csc(Cc2cc(Cl)ccc2OCc2cc(F)c(F)c(F)c2)n1` , thanks.
Out: ≤ 1000 nM

In: Need IC50 of `NC(=O)c1nc(Cc2cc(Cl)ccc2OCc2c(F)ccc(F)c2F)cs1` , thanks.
Out: > 1000 nM

In: Need IC50 of `O=C(O)c1csc(Cc2cc(C(F)(F)F)ccc2OCc2ccc(F)c(F)c2F)n1` , thanks.
Out: ≤ 1000 nM

In: Need IC50 of `CC(C)COc1ccc(Cl)cc1Cc1nc(-c2nc3ccc(CCN4CCN(C)CC4)cc3[nH]2)co1` , thanks.
Out: ≤ 31.6 nM

In: Need IC50 of CC(C)COc1ccc(Cl)cc1Cc1nc(-c2nc3ccccc3[nH]2)co1 [Example 162, hydrochloride] , thanks.
Out: ≤ 31.6 nM

----------
Each entry below lists one item and its recorded Ki value.
# measured-target: EP1 receptors (Homo sapiens, UniProt P34995)
# run-description: human EP1 calcium mobilisation assay (CHO-K1 cells, FLIPR, PGE2)
# Type: cell-based
# Set-up: expressed in transfected cells; host or cells: CHO-K1 cells, pCIN vector
# particulars: free bases or sodium salts; averages of a number of experiments; read-out: functional pKi value, human EP1 calcium mobilisation assay (converted)
Counter-ions that a name gives are not always drawn.

Completed entries (count: 3):
CC(C)COc1ccc(Cl)cc1Nc1nc(-c2nc3ccccc3[nH]2)cs1 [Example 164]; < 1000 nM
O=C(Nc1ccc(CN2CCOCC2)cc1)c1csc(Cc2cc(Cl)ccc2OCc2ccccc2)n1 [Example 120]; > 1000 nM
CC(=O)Nc1csc(Cc2cc(Cl)ccc2OCc2ccccc2)n1 [Example 127]; > 1000 nM

For the next question, use this compound.
In: Need Ki of CC(C)COc1ccc(Cl)cc1Cc1nc(-c2nc3ccc(CCN(C)C)cc3[nH]2)co1 [Example 166, hydrochloride] , thanks.
Out: < 1000 nM

----------
Each entry below lists one item and its recorded IC50 value.
# measured-target: UniProt:P34995
# run-description: Binding assay for the human prostanoid EP1 receptor (competition with [3H]-PGE2)
# Design: expressed in transfected cells; host or cells: CHO-K1 cells, membrane fraction
# particulars: [3H]-PGE2 competition; averages of a number of experiments; read-out: pIC50 value, binding assay for the human prostanoid EP1 receptor (converted)
Where a name gives a salt, the structure may show the parent alone.

Completed entries (count: 5):
NC(=O)c1nc(Cc2cc(Cl)ccc2OCc2ccccc2F)cs1 [Example 2]; ≤ 1 µM
O=C(O)c1csc(Cc2cc(Br)ccc2OCc2ccccc2F)n1 [Example 51]; ≤ 0.0316 µM
CC(C)COc1ccc(Cl)cc1Cc1nc(-c2nc3ccc(CN(C)C)cc3[nH]2)cs1 [Example 124]; ≤ 0.0316 µM
CC(c1nc(C(=O)O)cs1)c1cc(Cl)ccc1OCc1ccccc1 (stereo not drawn) [Example 50]; ≤ 1 µM
O=C(O)Cc1csc(-c2cc(Cl)ccc2OCc2ccc(Cl)cc2F)n1 [Example 65]; ≤ 0.0316 µM

In: Need IC50 of O=C(O)c1csc(Cc2cc(Br)ccc2OCc2ccc(F)cc2Cl)n1 [Example 61] , thanks.
Out: ≤ 0.0316 µM

In: Need IC50 of CC(C)COc1ccc(Cl)cc1Nc1nc(-c2nc3ccc(N4CCN(C)CC4)cc3[nH]2)cs1 [Example 165] , thanks.
Out: ≤ 0.0316 µM

In: Need IC50 of O=C(O)c1csc(Cc2cc(C(F)(F)F)ccc2OCc2cccc(F)c2F)n1 [Example 34] , thanks.
Out: ≤ 0.0316 µM

In: Need IC50 of CNCc1ccc2nc(-c3csc(Nc4cc(Cl)ccc4OCC(C)C)n3)[nH]c2c1 [Example 179, hydrochloride] , thanks.
Out: ≤ 0.0316 µM

Values from patent US20080207708A1
